molecular target: PCSK9 (Homo sapiens, UniProt Q8NBP7); assay: PCSK9 Alexa FRET Standard assay (displacement of AlexaFluor647 tagged cyclic peptide Reagent A); assay type: binding; conditions: 0.5 nM PCSK9, 20 nM AF cyclic peptide Reagent A
Sequence (Q8NBP7 153-692): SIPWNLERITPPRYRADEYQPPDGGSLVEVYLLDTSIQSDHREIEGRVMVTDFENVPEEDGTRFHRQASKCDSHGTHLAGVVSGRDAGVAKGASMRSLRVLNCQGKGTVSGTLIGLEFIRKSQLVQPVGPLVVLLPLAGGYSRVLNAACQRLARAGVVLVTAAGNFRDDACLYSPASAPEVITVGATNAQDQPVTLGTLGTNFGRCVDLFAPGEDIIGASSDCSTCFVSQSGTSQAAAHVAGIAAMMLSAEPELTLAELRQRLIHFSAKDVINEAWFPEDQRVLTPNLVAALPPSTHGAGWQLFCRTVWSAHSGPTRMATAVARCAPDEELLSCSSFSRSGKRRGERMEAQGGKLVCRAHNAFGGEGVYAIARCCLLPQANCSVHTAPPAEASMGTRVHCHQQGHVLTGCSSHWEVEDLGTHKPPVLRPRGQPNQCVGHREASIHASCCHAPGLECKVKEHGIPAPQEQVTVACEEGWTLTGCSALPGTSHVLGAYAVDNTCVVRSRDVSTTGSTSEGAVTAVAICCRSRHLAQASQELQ
Numbered stars: 1 amine (or outer) side, 2 acyl side, 3 side chain; on linkers, the order of the positions; unused ones are H or OH. Bridge positions count the residues as written; N and C are the ends. Square brackets hold non-standard residues; d marks the D form. Peptide text beside a SMILES is read from it. X3 = O=C([C@@H]1C[C@@H](SCc2ccc(C[*:3])cc2)CN1[*:1])[*:2]; Trp(7-aza) = N[C@@H](Cc1c[nH]c2ncccc12)C(=O)O; mXylylene = c1cc(C[*:1])cc(C[*:2])c1; 3Pal = N[C@@H](Cc1cccnc1)C(=O)O; Aad = N[C@@H](CCCC(=O)O)C(=O)O; Chg = N[C@H](C(=O)O)C1CCCCC1; Pen = CC(C)(S)[C@H](N)C(=O)O; Tle = CC(C)(C)[C@H](N)C(=O)O; αMeV = CC(C)[C@](C)(N)C(=O)O; S5 = C=CCCC[C@](C)(N)C(=O)O; Ac5c = NC1(C(=O)O)CCCC1; Nva = CCC[C@H](N)C(=O)O; Ac3c = NC1(C(=O)O)CC1; Aib = CC(C)(N)C(=O)O; Mpa = O=C(O)CCS
experimentalEndpoint: IC50

Request: Answer with the recorded IC50 of CCC[C@@H]1NC(=O)[C@H](Cc2cccnc2)NC(=O)[C@H]([C@@H](C)O)NC(=O)[C@H](Cc2c[nH]cn2)NC(=O)[C@H](Cc2ccc(O)cc2)NC(=O)[C@H](C(C)(C)C)NC(=O)CCSCc2cccc(c2)CSC[C@@H](C(N)=O)NC(=O)[C@H]([C@@H](C)O)NC(=O)[C@H](CCC)NC(=O)[C@H](Cc2ccc(O)cc2)NC(=O)[C@H](CCC(=O)O)NC1=O [Compound 272] ([Mpa][Tle]YHT[3Pal][Nva]EY[Nva]TC-NH2; linker 1-12 via mXylylene) only.
Response: 50 to 100 µM

Request: Answer with the recorded IC50 of C=CCCC[C@]1(C)NC(=O)[C@H](CCC)NC(=O)[C@H](Cc2ccc(O)cc2)NC(=O)[C@H](C)NC(=O)C(C)(C)NC(=O)[C@H](Cc2c[nH]c3ncccc23)NC(=O)[C@H]([C@@H](C)O)NC(=O)[C@@H]2CCCN2C(=O)[C@H](Cc2ccc(O)cc2)NC(=O)[C@H](C(C)(C)C)NC(=O)[C@@H](NC(C)=O)CCCC(=O)NCCCC[C@@H](C(N)=O)NC1=O [Compound 053] (Ac-[Aad][Tle]YPT[Trp(7-aza)][Aib]AY[Nva][S5]K-NH2; lactam 1-12) only.
Response: 1 to 21 µM

Request: Answer with the recorded IC50 of CC(=O)N[C@H]1CSCc2cccc(c2)CSC[C@H](C(N)=O)NC(=O)[C@H]([C@@H](C)O)NC(=O)[C@](C)(C(C)C)NC(=O)[C@H](Cc2ccc(O)cc2)NC(=O)[C@H](C)NC(=O)C2(CCCC2)NC(=O)[C@H](Cc2c[nH]c3ncccc23)NC(=O)[C@H]([C@@H](C)O)NC(=O)[C@@H]2CCCN2C(=O)[C@H](Cc2ccc(O)cc2)NC(=O)[C@H](C(C)(C)C)NC1=O [Compound 186] (Ac-C[Tle]YPT[Trp(7-aza)][Ac5c]AY[αMeV]T[dC]-NH2; linker 1-12 via mXylylene) only.
Response: 0.001 to 0.1 µM

Request: Answer with the recorded IC50 of CC(=O)N[C@H]1CCCCNC(=O)CCC[C@@H](C(N)=O)NC(=O)[C@H]([C@@H](C)O)NC(=O)[C@](C)(C(C)C)NC(=O)[C@H](Cc2ccc(O)cc2)NC(=O)[C@H](C)NC(=O)C(C)(C)NC(=O)[C@H](Cc2c[nH]c3ncccc23)NC(=O)[C@H]([C@@H](C)O)NC(=O)[C@@H]2C[C@@H]3CN2C(=O)[C@H](Cc2ccc(O)cc2)NC(=O)[C@@H](NC1=O)C(C)(C)SCc1ccc(cc1)CS3 [Compound 349] (Ac-K[Pen]Y[X3]T[Trp(7-aza)][Aib]AY[αMeV]T[Aad]-NH2; lactam 1-12; thioether 2-4) only.
Response: 0.001 to 0.1 µM

Request: Answer with the recorded IC50 of CCC[C@@H]1NC(=O)[C@H](Cc2ccc(O)cc2)NC(=O)[C@H](CCC(=O)O)NC(=O)[C@H](C2CCCCC2)NC(=O)[C@H](Cc2c[nH]c3ncccc23)NC(=O)[C@H]([C@@H](C)O)NC(=O)[C@H](Cc2c[nH]cn2)NC(=O)[C@H](Cc2ccc(O)cc2)NC(=O)[C@H](C(C)(C)C)NC(=O)CCSCc2cccc(c2)CSC[C@@H](C(N)=O)NC(=O)[C@H]([C@@H](C)O)NC1=O [Compound 273] ([Mpa][Tle]YHT[Trp(7-aza)][Chg]EY[Nva]TC-NH2; linker 1-12 via mXylylene) only.
Response: 0.1 to 1 µM

Request: Answer with the recorded IC50 of CCC[C@H](NC(C)=O)C(=O)N[C@H]1CSCc2cccc(c2)CSC[C@@H](C(N)=O)NC(=O)[C@H]([C@@H](C)O)NC(=O)[C@H](CCC)NC(=O)[C@H](Cc2ccc(O)cc2)NC(=O)[C@H](C)NC(=O)[C@H](CCC)NC(=O)[C@H](Cc2c[nH]c3ncccc23)NC(=O)[C@H]([C@@H](C)O)NC(=O)[C@H](Cc2cnc[nH]2)NC(=O)[C@H](Cc2ccc(O)cc2)NC(=O)[C@H](C(C)(C)C)NC1=O [Compound 258] (Ac-[Nva]C[Tle]YHT[Trp(7-aza)][Nva]AY[Nva]TC-NH2; linker 2-13 via mXylylene) only.
Response: 50 to 100 µM

Request: Answer with the recorded IC50 of CC(=O)N[C@H]1CSCc2cccc(c2)CSC[C@H](C(N)=O)NC(=O)[C@H]([C@@H](C)O)NC(=O)[C@](C)(C(C)C)NC(=O)[C@H](Cc2ccc(O)cc2)NC(=O)[C@H](C)NC(=O)C2(CC2)NC(=O)[C@H](Cc2c[nH]c3ncccc23)NC(=O)[C@H]([C@@H](C)O)NC(=O)[C@@H]2CCCN2C(=O)[C@H](Cc2ccc(O)cc2)NC(=O)[C@H](C(C)(C)C)NC1=O [Compound 191] (Ac-C[Tle]YPT[Trp(7-aza)][Ac3c]AY[αMeV]T[dC]-NH2; linker 1-12 via mXylylene) only.
Response: 0.001 to 0.1 µM

Request: Answer with the recorded IC50 of CC(=O)N[C@H]1CSCc2cccc(c2)CSC[C@@H](C(N)=O)NC(=O)[C@H]([C@@H](C)O)NC(=O)[C@](C)(C(C)C)NC(=O)[C@H](Cc2ccc(O)cc2)NC(=O)[C@H](C)NC(=O)C2(CCCC2)NC(=O)[C@H](Cc2c[nH]c3ncccc23)NC(=O)[C@H]([C@@H](C)O)NC(=O)[C@@H]2CCCN2C(=O)[C@H](Cc2ccc(O)cc2)NC(=O)[C@H](C(C)(C)C)NC1=O [Compound 184] (Ac-C[Tle]YPT[Trp(7-aza)][Ac5c]AY[αMeV]TC-NH2; linker 1-12 via mXylylene) only.
Response: 0.001 to 0.1 µM

---

Kindly state IC50 for each of the entries shown.
biological target: human PCSK9 / human LDLR EGFa domain interaction (Homo sapiens); experiment: TR-FRET assay of inhibition of the PCSK9-LDLR protein-protein interaction; settings: 20 nM avitag-biotinylated human PCSK9, 20 nM his-tagged human LDLR EGFa domain, 2 hours, room temperature
Sequence (Q8NBP7 153-692): as above
Sequence (Q8NBP7 31-152 partner limits assumed): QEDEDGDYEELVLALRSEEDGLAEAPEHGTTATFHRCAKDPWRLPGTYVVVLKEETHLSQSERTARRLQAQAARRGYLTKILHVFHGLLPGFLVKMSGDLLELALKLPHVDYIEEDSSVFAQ
Numbered stars: 1 amine (or outer) side, 2 acyl side, 3 side chain; on linkers, the order of the positions; unused ones are H or OH. Bridge positions count the residues as written; N and C are the ends. Square brackets hold non-standard residues; d marks the D form. Peptide text beside a SMILES is read from it. Trp(7-aza) = N[C@@H](Cc1c[nH]c2ncccc12)C(=O)O; Leu(3R-OH) = CC(C)[C@@H](O)[C@H](N)C(=O)O; mXylylene = c1cc(C[*:1])cc(C[*:2])c1; Aad = N[C@@H](CCCC(=O)O)C(=O)O; Chg = N[C@H](C(=O)O)C1CCCCC1; Tle = CC(C)(C)[C@H](N)C(=O)O; αMeV = CC(C)[C@](C)(N)C(=O)O; Nva = CCC[C@H](N)C(=O)O; Ac4c = NC1(C(=O)O)CCC1; Mpa = O=C(O)CCS

Request: Answer with the recorded IC50 of CC(=O)N[C@H]1CSCc2cccc(c2)CSC[C@@H](C(N)=O)NC(=O)[C@H]([C@@H](C)O)NC(=O)[C@](C)(C(C)C)NC(=O)[C@H](Cc2ccc(O)cc2)NC(=O)[C@H](C)NC(=O)C2(CCC2)NC(=O)[C@H](Cc2c[nH]c3ncccc23)NC(=O)[C@H]([C@@H](C)O)NC(=O)[C@@H]2CCCN2C(=O)[C@H](Cc2ccc(O)cc2)NC(=O)[C@H](C(C)(C)C)NC1=O [Compound 183] (Ac-C[Tle]YPT[Trp(7-aza)][Ac4c]AY[αMeV]TC-NH2; linker 1-12 via mXylylene) only.
Response: 21000 to 50000 nM

Request: Answer with the recorded IC50 of CCC[C@@H]1NC(=O)[C@H](Cc2c[nH]c3ncccc23)NC(=O)[C@H]([C@H](O)C(C)C)NC(=O)[C@H](Cc2c[nH]cn2)NC(=O)[C@H](Cc2ccc(O)cc2)NC(=O)[C@H](C(C)(C)C)NC(=O)CCSCc2cccc(c2)CSC[C@@H](C(N)=O)NC(=O)[C@H]([C@@H](C)O)NC(=O)[C@H](CCC)NC(=O)[C@H](Cc2ccc(O)cc2)NC(=O)[C@H](CCC(=O)O)NC1=O [Compound 305] ([Mpa][Tle]YH[Leu(3R-OH)][Trp(7-aza)][Nva]EY[Nva]TC-NH2; linker 1-12 via mXylylene) only.
Response: 1000 to 21000 nM

Request: Answer with the recorded IC50 of CCC[C@H](NC(C)=O)C(=O)N[C@H]1CSCc2cccc(c2)CSC[C@@H](C(N)=O)NC(=O)[C@H]([C@@H](C)O)NC(=O)[C@H](C2CCCCC2)NC(=O)[C@H](Cc2c[nH]c3ncccc23)NC(=O)[C@H](Cc2c[nH]cn2)NC(=O)[C@H](CCC(=O)O)NC(=O)[C@H](Cc2c[nH]c3ncccc23)NC(=O)[C@H]([C@@H](C)O)NC(=O)[C@@H]2CCCN2C(=O)[C@H](Cc2ccc(O)cc2)NC(=O)[C@H](C(C)(C)C)NC1=O [Compound 152] (Ac-[Nva]C[Tle]YPT[Trp(7-aza)]EH[Trp(7-aza)][Chg]TC-NH2; linker 2-13 via mXylylene) only.
Response: 1 to 100 nM

Request: Answer with the recorded IC50 of CCC[C@@H]1NC(=O)[C@H](Cc2c[nH]c3ncccc23)NC(=O)[C@H]([C@@H](C)O)NC(=O)[C@H](Cc2c[nH]cn2)NC(=O)[C@H](Cc2ccc(O)cc2)NC(=O)[C@H](C(C)(C)C)NC(=O)CCSCc2cccc(c2)CSC[C@@H](C(N)=O)NC(=O)[C@H]([C@@H](C)O)NC(=O)[C@H](CCC)NC(=O)[C@H](Cc2ccc(O)cc2)NC(=O)[C@H](CCCC(=O)O)NC1=O [Compound 259] ([Mpa][Tle]YHT[Trp(7-aza)][Nva][Aad]Y[Nva]TC-NH2; linker 1-12 via mXylylene) only.
Response: 100 to 1000 nM

Request: Answer with the recorded IC50 of CCC[C@@H]1NC(=O)[C@H]([C@@H](C)O)NC(=O)[C@@H]2CCCN2C(=O)[C@H](Cc2ccc(O)cc2)NC(=O)[C@H](C(C)(C)C)NC(=O)[C@@H](NC(C)=O)CCCCNC(=O)CCC[C@@H](C(N)=O)NC(=O)[C@H]([C@@H](C)O)NC(=O)[C@](C)(C(C)C)NC(=O)[C@H](Cc2ccc(O)cc2)NC(=O)[C@H](C)NC1=O [Compound 057] (Ac-K[Tle]YPT[Nva]AY[αMeV]T[Aad]-NH2; lactam 1-11) only.
Response: 1000 to 21000 nM
